src = patent US5095018A

assay: standard maximal electroshock test (MES), anticonvulsant activity; type: in vivo; conditions: oral (P.O.), HCl salt, read-out: ED50 P.O.
value_type: ED50 (mg/kg)
Numbers only; they are read as mg/kg.

| compound_structure_string | value_type | readout_value |
| --- | --- | --- |
| Nc1nccn2c(Cc3c(F)cccc3F)nnc12 | ED50 | 7.1 |
| CNc1nccn2c(Cc3cc(F)ccc3F)nnc12 | ED50 | 10.2 |

Q. Give its ED50 value. Item: Nc1nccn2c(Cc3ccccc3F)nnc12
A. 8

Q. Please give the measured ED50 for this compound: CNc1nccn2c(Cc3ccccc3)nnc12
A. 15.6

Q. Requested read-out: ED50. Entry: CNc1nccn2c(Cc3cccc(F)c3)nnc12
A. 20.4

Q. GET /values?readout=ED50&item= Nc1nccn2c(Cc3cc(F)ccc3F)nnc12
A. 20.4

Q. Which ED50 value is on record for CNc1nccn2c(Cc3ccccc3F)nnc12 ?
A. 8.3

Q. If you can, please state the reported ED50 value of CNc1nccn2c(Cc3c(F)cccc3F)nnc12 .
A. 3
